What shrunken log2 fold change was measured for each of the following?
test system: Escherichia coli TOP10; experiment: shrunken log2 fold change of peptide-encoding DNA abundance (4.5 h post-induction vs induction); higher = less antimicrobial activity (less host growth inhibition); conditions: time post-induction: 4.5 h; library: site-saturation at positions 5, 18, 19, 20;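 note: peptides expressed intracellularly from a pBAD plasmid library in pooled LB shake-flask culture, induced with 0.3% L-arabinose, DNA abundance read by NGS, three biological replicates, DESeq2 with apeglm shrinkage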
When you answer, write just the number.

Exam item: I'd like to know its shrunken log2 fold change. The sequence in question is `RRIRRRPPRLPRPRPRPTHCPRP`
Marked response: 0.562

Exam item: I'd like to know its shrunken log2 fold change. The sequence in question is `RRIRRRPPRLPRPRPRPDPNPRP`
Marked response: 0.0237

Exam item: I'd like to know its shrunken log2 fold change. The sequence in question is `RRIRWRPPRLPRPRPRPHHSPRP`
Marked response: -0.667

Exam item: I'd like to know its shrunken log2 fold change. The sequence in question is `RRIRLRPPRLPRPRPRPVGNPRP`
Marked response: 0.0885

Exam item: I'd like to know its shrunken log2 fold change. The sequence in question is `RRIRFRPPRLPRPRPRPVDLPRP`
Marked response: -0.102

Exam item: I'd like to know its shrunken log2 fold change. The sequence in question is `RRIRHRPPRLPRPRPRPKNHPRP`
Marked response: -0.566

Exam item: I'd like to know its shrunken log2 fold change. The sequence in question is `RRIRKRPPRLPRPRPRPWMQPRP`
Marked response: -0.0134

Exam item: I'd like to know its shrunken log2 fold change. The sequence in question is `RRIRWRPPRLPRPRPRPNDAPRP`
Marked response: 0.0398

Exam item: I'd like to know its shrunken log2 fold change. The sequence in question is `RRIRIRPPRLPRPRPRPQHEPRP`
Marked response: -0.262

Exam item: I'd like to know its shrunken log2 fold change. The sequence in question is `RRIRYRPPRLPRPRPRPHCMPRP`
Marked response: -0.161

Exam item: I'd like to know its shrunken log2 fold change. The sequence in question is `RRIRQRPPRLPRPRPRPIVIPRP`
Marked response: 0.0668

Exam item: I'd like to know its shrunken log2 fold change. The sequence in question is `RRIRDRPPRLPRPRPRPRFLPRP`
Marked response: -0.201

Exam item: I'd like to know its shrunken log2 fold change. The sequence in question is `RRIRHRPPRLPRPRPRPAFKPRP`
Marked response: -0.0994

Exam item: I'd like to know its shrunken log2 fold change. The sequence in question is `RRIRWRPPRLPRPRPRPLRYPRP`
Marked response: -0.0913

Exam item: I'd like to know its shrunken log2 fold change. The sequence in question is `RRIRTRPPRLPRPRPRPHPNPRP`
Marked response: 0.0697

Exam item: I'd like to know its shrunken log2 fold change. The sequence in question is `RRIRTRPPRLPRPRPRPTKHPRP`
Marked response: -0.258

Exam item: I'd like to know its shrunken log2 fold change. The sequence in question is `RRIRWRPPRLPRPRPRPLDVPRP`
Marked response: 0.00856

Exam item: I'd like to know its shrunken log2 fold change. The sequence in question is `RRIRARPPRLPRPRPRPSRIPRP`
Marked response: 0.163

Exam item: I'd like to know its shrunken log2 fold change. The sequence in question is `RRIRQRPPRLPRPRPRPAPKPRP`
Marked response: 0.148

Exam item: I'd like to know its shrunken log2 fold change. The sequence in question is `RRIRPRPPRLPRPRPRPEKPPRP`
Marked response: -0.129

Exam item: I'd like to know its shrunken log2 fold change. The sequence in question is `RRIRMRPPRLPRPRPRPEYSPRP`
Marked response: 0.0257

Exam item: I'd like to know its shrunken log2 fold change. The sequence in question is `RRIRGRPPRLPRPRPRPYQAPRP`
Marked response: -0.119

Exam item: I'd like to know its shrunken log2 fold change. The sequence in question is `RRIRQRPPRLPRPRPRPFWDPRP`
Marked response: 0.213

Exam item: I'd like to know its shrunken log2 fold change. The sequence in question is `RRIRPRPPRLPRPRPRPKQVPRP`
Marked response: -0.0541

Exam item: I'd like to know its shrunken log2 fold change. The sequence in question is `RRIRHRPPRLPRPRPRPRTIPRP`
Marked response: -0.344

Exam item: I'd like to know its shrunken log2 fold change. The sequence in question is `RRIRTRPPRLPRPRPRPFPSPRP`
Marked response: 0.0745

Exam item: I'd like to know its shrunken log2 fold change. The sequence in question is `RRIRVRPPRLPRPRPRPMIVPRP`
Marked response: 0.109

Exam item: I'd like to know its shrunken log2 fold change. The sequence in question is `RRIRARPPRLPRPRPRPRPIPRP`
Marked response: 0.719

Exam item: I'd like to know its shrunken log2 fold change. The sequence in question is `RRIRWRPPRLPRPRPRPGQSPRP`
Marked response: 0.572

Exam item: I'd like to know its shrunken log2 fold change. The sequence in question is `RRIRLRPPRLPRPRPRPHNRPRP`
Marked response: -0.205

Exam item: I'd like to know its shrunken log2 fold change. The sequence in question is `RRIRARPPRLPRPRPRPDRDPRP`
Marked response: -0.0499

Exam item: I'd like to know its shrunken log2 fold change. The sequence in question is `RRIRGRPPRLPRPRPRPHLKPRP`
Marked response: 0.378

Exam item: I'd like to know its shrunken log2 fold change. The sequence in question is `RRIRSRPPRLPRPRPRPPDGPRP`
Marked response: 0.447

Exam item: I'd like to know its shrunken log2 fold change. The sequence in question is `RRIRFRPPRLPRPRPRPVKHPRP`
Marked response: -0.222

Exam item: I'd like to know its shrunken log2 fold change. The sequence in question is `RRIRVRPPRLPRPRPRPHYGPRP`
Marked response: -0.0301

Exam item: I'd like to know its shrunken log2 fold change. The sequence in question is `RRIRGRPPRLPRPRPRPNSWPRP`
Marked response: 0.356

Exam item: I'd like to know its shrunken log2 fold change. The sequence in question is `RRIRPRPPRLPRPRPRPGDLPRP`
Marked response: 0.076

Exam item: I'd like to know its shrunken log2 fold change. The sequence in question is `RRIRIRPPRLPRPRPRPNPIPRP`
Marked response: -0.155

Exam item: I'd like to know its shrunken log2 fold change. The sequence in question is `RRIRYRPPRLPRPRPRPFPQPRP`
Marked response: -0.137

Exam item: I'd like to know its shrunken log2 fold change. The sequence in question is `RRIRFRPPRLPRPRPRPCMSPRP`
Marked response: -0.0366

Exam item: I'd like to know its shrunken log2 fold change. The sequence in question is `RRIRGRPPRLPRPRPRPQQIPRP`
Marked response: 0.457

Exam item: I'd like to know its shrunken log2 fold change. The sequence in question is `RRIRFRPPRLPRPRPRPKDQPRP`
Marked response: 0.0707

Exam item: I'd like to know its shrunken log2 fold change. The sequence in question is `RRIRERPPRLPRPRPRPWKEPRP`
Marked response: 0.0039

Exam item: I'd like to know its shrunken log2 fold change. The sequence in question is `RRIRMRPPRLPRPRPRPQEDPRP`
Marked response: -0.0231

Exam item: I'd like to know its shrunken log2 fold change. The sequence in question is `RRIRERPPRLPRPRPRPKMCPRP`
Marked response: -0.149

Exam item: I'd like to know its shrunken log2 fold change. The sequence in question is `RRIRHRPPRLPRPRPRPQRIPRP`
Marked response: -0.00331

Exam item: I'd like to know its shrunken log2 fold change. The sequence in question is `RRIRFRPPRLPRPRPRPHMSPRP`
Marked response: 0.0344

Exam item: I'd like to know its shrunken log2 fold change. The sequence in question is `RRIRMRPPRLPRPRPRPPIPPRP`
Marked response: 0.556

Exam item: I'd like to know its shrunken log2 fold change. The sequence in question is `RRIRMRPPRLPRPRPRPMRRPRP`
Marked response: 0.487

Exam item: I'd like to know its shrunken log2 fold change. The sequence in question is `RRIRCRPPRLPRPRPRPQLYPRP`
Marked response: -0.236

Exam item: I'd like to know its shrunken log2 fold change. The sequence in question is `RRIRCRPPRLPRPRPRPNREPRP`
Marked response: -0.134

Exam item: I'd like to know its shrunken log2 fold change. The sequence in question is `RRIRNRPPRLPRPRPRPDGEPRP`
Marked response: -0.00776

Exam item: I'd like to know its shrunken log2 fold change. The sequence in question is `RRIRSRPPRLPRPRPRPWQVPRP`
Marked response: 0.00514

Exam item: I'd like to know its shrunken log2 fold change. The sequence in question is `RRIRDRPPRLPRPRPRPVLHPRP`
Marked response: 0.0367

Exam item: I'd like to know its shrunken log2 fold change. The sequence in question is `RRIRRRPPRLPRPRPRPTTPPRP`
Marked response: 0.463

Exam item: I'd like to know its shrunken log2 fold change. The sequence in question is `RRIRDRPPRLPRPRPRPIMTPRP`
Marked response: 0.107

Exam item: I'd like to know its shrunken log2 fold change. The sequence in question is `RRIRDRPPRLPRPRPRPAEFPRP`
Marked response: 0.149

Exam item: I'd like to know its shrunken log2 fold change. The sequence in question is `RRIRMRPPRLPRPRPRPDSSPRP`
Marked response: 0.0874

Exam item: I'd like to know its shrunken log2 fold change. The sequence in question is `RRIRTRPPRLPRPRPRPMRWPRP`
Marked response: 0.313

Exam item: I'd like to know its shrunken log2 fold change. The sequence in question is `RRIRERPPRLPRPRPRPNIQPRP`
Marked response: -0.357

Exam item: I'd like to know its shrunken log2 fold change. The sequence in question is `RRIRERPPRLPRPRPRPQHNPRP`
Marked response: -0.771

Exam item: I'd like to know its shrunken log2 fold change. The sequence in question is `RRIRMRPPRLPRPRPRPQQWPRP`
Marked response: 0.153

Exam item: I'd like to know its shrunken log2 fold change. The sequence in question is `RRIRVRPPRLPRPRPRPQWQPRP`
Marked response: 0.0741
